- Tested on: 994946-033-R-J1-PDC complex spheroid viability
- measurement notes: Anticancer human tumor 994946-033-R-J1-PDC patient-derived melanoma cell line growth inhibition [POLQ]
- condition context: second compound 3.16 µM; first compound 0.0316 µM; stronger effect = lower value
Please note: viability, T/C exactly at 50% is 0. Only values below 50% get 1.

[Q] Does the reported viability, T/C of CCCS(=O)(=O)Nc1ccc(F)c(C(=O)c2c[nH]c3ncc(-c4ccc(Cl)cc4)cc23)c1F + Nc1ccc(C#CCN(C(=O)Cc2ncc(C(F)(F)F)cc2C(F)(F)F)c2ccc(F)cc2)nn1 stay below 50%?
[A] 0

[Q] Below 50% on viability, T/C? Entry CNCc1ccc(-c2[nH]c3cc(F)cc4c3c2CCNC4=O)cc1 + COC1C(OC(N)=O)C(O)C(Oc2ccc3c(O)c(NC(=O)c4ccc(O)c(CC=C(C)C)c4)c(=O)oc3c2C)OC1(C)C
[A] 0

[Q] Say whether its viability, T/C is strictly beneath 50%. Entry: O=C(c1cc(Cc2n[nH]c(=O)c3ccccc23)ccc1F)N1CCN(C(=O)C2CC2)CC1 + COC1C(OC(N)=O)C(O)C(Oc2ccc3c(O)c(NC(=O)c4ccc(O)c(CC=C(C)C)c4)c(=O)oc3c2C)OC1(C)C
[A] 0

----------
- Test system: 994946-033-R-J1-PDC complex spheroid viability
- measurement notes: Anticancer human tumor 994946-033-R-J1-PDC cell line growth inhibition [POLQ];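 further: spheroids exposed to drugs for 7 days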
- condition context: curve of first compound; second compound 10 µM
observation type: IC50 (µM)
Give bare numbers, in µM.

[Q] Find the recorded IC50 belonging to CC1COCCN1c1cc(-c2ccnn2C)c2ccnc(-c3ccn[nH]3)c2n1 (centres undefined) + COC1C(OC(N)=O)C(O)C(Oc2ccc3c(O)c(NC(=O)c4ccc(O)c(CC=C(C)C)c4)c(=O)oc3c2C)OC1(C)C and report it.
[A] 0.0584

Read the next record carefully.
[Q] Which value of IC50 has been reported for CCCS(=O)(=O)Nc1ccc(F)c(C(=O)c2c[nH]c3ncc(-c4ccc(Cl)cc4)cc23)c1F + Cc1cccc(N(C)C(=O)C2C(O)CCN2c2nc(C)cc(C(F)(F)F)c2C#N)c1 in the records?
[A] 5.54

----------
- Test system: 994946-033-R-J1-PDC complex spheroid viability
- measurement notes: Anticancer human tumor 994946-033-R-J1-PDC cell line growth inhibition [POLQ];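 further: spheroids exposed to drugs for 7 days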;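 on viability, T/C: 100% = DMSO vehicle treated spheroids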
- condition context: second compound 10 µM; first compound 0.316 µM; stronger effect = lower value
Mark True only when viability, T/C stays strictly below 20%. Values equal to the cut-off are False.

Example cases with answers are listed next.
[Q] Bench note: check whether COc1cc2cc(C(=O)CCC(=O)O)sc2cc1OC + COC1C(OC(N)=O)C(O)C(Oc2ccc3c(O)c(NC(=O)c4ccc(O)c(CC=C(C)C)c4)c(=O)oc3c2C)OC1(C)C shows viability, T/C below 20%
[A] False

[Q] Identify whether the compound CC1COCCN1c1cc(C2(O)CC3CCC(C2)O3)c2cnn(-c3ccn[nH]3)c2n1 (stereo unspecified) + Cc1cccc(N(C)C(=O)C2C(O)CCN2c2nc(C)cc(C(F)(F)F)c2C#N)c1 records viability, T/C below 20%.
[A] True

[Q] viability, T/C strictly < 20% for this compound? CCc1c2c(nc3ccc(O)cc13)-c1cc3c(c(=O)n1C2)COC(=O)[C@]3(O)CC + Nc1ccc(C#CCN(C(=O)Cc2ncc(C(F)(F)F)cc2C(F)(F)F)c2ccc(F)cc2)nn1
[A] True

Continuing:
[Q] Lab note: viability, T/C threshold 20%. Does this compound come in strictly under it? Nc1ccn(C2OC(CO)C(O)C2(F)F)c(=O)n1 (stereo unspecified) + Cc1cccc(N(C)C(=O)C2C(O)CCN2c2nc(C)cc(C(F)(F)F)c2C#N)c1
[A] True

[Q] Threshold test, viability, T/C < 20%: O=C(Nc1ccc(O)c(NS(=O)(=O)c2ccc(F)cc2)c1)c1ccc(-c2ccccc2)cc1 + COC1C(OC(N)=O)C(O)C(Oc2ccc3c(O)c(NC(=O)c4ccc(O)c(CC=C(C)C)c4)c(=O)oc3c2C)OC1(C)C
[A] False

[Q] Lab note: viability, T/C threshold 20%. Does this compound come in strictly under it? CC1COCCN1c1cc(-c2ccnn2C)c2ccnc(-c3ccn[nH]3)c2n1 (stereo unspecified) + COC1C(OC(N)=O)C(O)C(Oc2ccc3c(O)c(NC(=O)c4ccc(O)c(CC=C(C)C)c4)c(=O)oc3c2C)OC1(C)C
[A] False

[Q] Hello, is viability, T/C of the following compound strictly smaller than 20%? CCc1cc2c(N3CCc4c(cc(Cn5ccnc5)cc4-c4cn(C)nc4C(F)(F)F)C3=O)ccnc2c(OC)n1 + Nc1ccc(C#CCN(C(=O)Cc2ncc(C(F)(F)F)cc2C(F)(F)F)c2ccc(F)cc2)nn1
[A] False

[Q] Record CC1COCCN1c1cc(-c2ccnn2C)c2ccnc(-c3ccn[nH]3)c2n1 (stereo unspecified) + Cc1cccc(N(C)C(=O)C2C(O)CCN2c2nc(C)cc(C(F)(F)F)c2C#N)c1 : is its viability, T/C strictly below 20%?
[A] False

[Q] Is 20% strictly greater than the compound's reported viability, T/C? compound: Nc1ccn(C2OC(CO)C(O)C2(F)F)c(=O)n1 (stereo unspecified) + Nc1ccc(C#CCN(C(=O)Cc2ncc(C(F)(F)F)cc2C(F)(F)F)c2ccc(F)cc2)nn1
[A] True

----------
- Tested on: 994946-033-R-J1-PDC complex spheroid viability
- measurement notes: Anticancer human tumor 994946-033-R-J1-PDC cell line growth inhibition [POLQ];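 further: spheroids exposed to drugs for 7 days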;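 on viability, T/C: 100% = DMSO vehicle treated spheroids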
- condition context: second compound 0.1 µM; first compound 0.0316 µM; stronger effect = lower value
observation type: viability, T/C

Use these answered entries as a reference point.
[Q] Quick one: viability, T/C of C#Cc1c(F)ccc2cc(O)cc(-c3ncc4c(N5CC6CCC(C5)N6)nc(OCC56CCCN5CC(F)C6)nc4c3F)c12 (stereo unspecified) + Cc1cccc(N(C)C(=O)C2C(O)CCN2c2nc(C)cc(C(F)(F)F)c2C#N)c1 ?
[A] 77%

[Q] Consider the compound shown here: O=c1[nH]cc(F)c(=O)[nH]1 + COC1C(OC(N)=O)C(O)C(Oc2ccc3c(O)c(NC(=O)c4ccc(O)c(CC=C(C)C)c4)c(=O)oc3c2C)OC1(C)C What is its recorded viability, T/C?
[A] 91.2%

[Q] Consider the compound shown here: CC1COCCN1c1cc(C2(S(C)(=N)=O)CC2)nc(-c2ccnc3[nH]ccc23)n1 (stereo unspecified) + COC1C(OC(N)=O)C(O)C(Oc2ccc3c(O)c(NC(=O)c4ccc(O)c(CC=C(C)C)c4)c(=O)oc3c2C)OC1(C)C What is its recorded viability, T/C?
[A] 113%

[Q] Need viability, T/C of CC1COCCN1c1cc(-c2ccnn2C)c2ccnc(-c3ccn[nH]3)c2n1 (stereo unspecified) + Cc1cccc(N(C)C(=O)C2C(O)CCN2c2nc(C)cc(C(F)(F)F)c2C#N)c1 , thanks.
[A] 69.1%

Please give viability, T/C for each item listed below.
1. Nc1ccn(C2OC(CO)C(O)C2(F)F)c(=O)n1 (stereo unspecified) + Cc1cccc(N(C)C(=O)C2C(O)CCN2c2nc(C)cc(C(F)(F)F)c2C#N)c1
2. O=c1[nH]cc(F)c(=O)[nH]1 + Nc1ccc(C#CCN(C(=O)Cc2ncc(C(F)(F)F)cc2C(F)(F)F)c2ccc(F)cc2)nn1

[A]
49.3%
101%

----------
Field: viability, T/C. Provide a value for each of the compounds that follow.
- Test system: 994946-033-R-J1-PDC complex spheroid viability
- measurement notes: Anticancer human tumor 994946-033-R-J1-PDC cell line growth inhibition [POLQ];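 further: spheroids exposed to drugs for 7 days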;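 on viability, T/C: 100% = DMSO vehicle treated spheroids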
- condition context: second compound 10 µM; first compound 0.001 µM; stronger effect = lower value

Value sought for every listed compound: viability, T/C.
1. CC[C@@]1(O)C(=O)OCc2c1cc1n(c2=O)Cc2cc3c(CN(C)C)c(O)ccc3nc2-1 + Nc1ccc(C#CCN(C(=O)Cc2ncc(C(F)(F)F)cc2C(F)(F)F)c2ccc(F)cc2)nn1
2. CC[C@@]1(O)C(=O)OCc2c1cc1n(c2=O)Cc2cc3c(CN(C)C)c(O)ccc3nc2-1 + COC1C(OC(N)=O)C(O)C(Oc2ccc3c(O)c(NC(=O)c4ccc(O)c(CC=C(C)C)c4)c(=O)oc3c2C)OC1(C)C
3. CC[C@@]1(O)C(=O)OCc2c1cc1n(c2=O)Cc2cc3c(CN(C)C)c(O)ccc3nc2-1 + Cc1cccc(N(C)C(=O)C2C(O)CCN2c2nc(C)cc(C(F)(F)F)c2C#N)c1
4. Cn1ncnc1[C@H]1c2n[nH]c(=O)c3cc(F)cc(c23)N[C@@H]1c1ccc(F)cc1 + COC1C(OC(N)=O)C(O)C(Oc2ccc3c(O)c(NC(=O)c4ccc(O)c(CC=C(C)C)c4)c(=O)oc3c2C)OC1(C)C
5. Cn1ncnc1[C@H]1c2n[nH]c(=O)c3cc(F)cc(c23)N[C@@H]1c1ccc(F)cc1 + Nc1ccc(C#CCN(C(=O)Cc2ncc(C(F)(F)F)cc2C(F)(F)F)c2ccc(F)cc2)nn1
6. Cn1ncnc1[C@H]1c2n[nH]c(=O)c3cc(F)cc(c23)N[C@@H]1c1ccc(F)cc1 + Cc1cccc(N(C)C(=O)C2C(O)CCN2c2nc(C)cc(C(F)(F)F)c2C#N)c1

[A]
["113%", "86.9%", "99.6%", "102%", "91%", "65%"]
